Value source: patent US20230339882A1

- test_description: In vitro metabolic stability in liver microsomes, rat
- Assay type: in vitro ADME
- experimental_setup: pH 7.3, read-out: CLint (µL/min/mg protein) rat
outcome_measure: microsomal CLint at 2 µM (µL/min/mg)

| compound | obs_value |
| --- | --- |
| NC(=O)Cn1cc(OCC#Cc2cnc(N3CCC4(CC3)Cc3ccccc3[C@H]4N)c(CO)n2)cn1 | 5.3 |
| Nc1cc(OCC#Cc2cnc(N3CCC4(CC3)Cc3ccccc3[C@H]4N)c(CO)n2)ccn1 | 9 |
| N[C@@H]1c2ccccc2CC12CCN(c1ncc(C#CCOc3ccc(C(O)C(F)(F)F)cc3)nc1CO)CC2 (stereo partly shown) | 14 |
| N[C@@H]1c2ccccc2CC12CCN(c1ncc(C#CCOc3ccc4ccc(=O)[nH]c4c3)nc1CO)CC2 | 11 |
| Cn1nccc1NCC#Cc1cnc(N2CCC3(CC2)Cc2ccccc2[C@H]3N)c(CO)n1 | 15.9 |
| CN(CC#Cc1cnc(N2CCC3(CC2)Cc2ccccc2[C@H]3N)c(CO)n1)c1ccc(C(N)=O)cc1 | 24.7 |
| NC(=O)c1cccc(NCC#Cc2cnc(N3CCC4(CC3)Cc3ccccc3[C@H]4N)c(CO)n2)c1 | 18.4 |

---

- test_description: In vitro metabolic stability in liver microsomes, dog
- Assay type: in vitro ADME
- experimental_setup: dog, microsomes, pH 7.3
outcome_measure: microsomal CLint at 2 µM (µL/min/mg)

| molecule | obs_value |
| --- | --- |
| NC(=O)c1ccc(OCC#Cc2cnc(N3CCC4(CC3)Cc3ccccc3[C@H]4N)cn2)cc1Cl [Compound A62] | 2.9 |
| N#Cc1ccc(OCC#Cc2cnc(N3CCC4(CC3)Cc3ccccc3[C@H]4N)c(CO)n2)cc1 [Compound A12] | 6.2 |
| N[C@@H]1c2ccccc2CC12CCN(c1ncc(C#CCOc3ccc4ccc(=O)[nH]c4c3)nc1CO)CC2 [Compound A24] | 8.8 |
| Nc1ncc(OCC#Cc2cnc(N3CCC4(CC3)Cc3ccccc3[C@H]4N)c(CO)n2)cn1 [Compound A19] | 18.3 |

---

- test_description: In vitro metabolic stability in liver microsomes, human
- Format: in vitro ADME
Listing of entries alongside the reported CLint (µL/min/mg protein) human.

| compound | quantity_unit | CLint (µL/min/mg protein) human |
| --- | --- | --- |
| NC(=O)c1ccc(OCC#Cc2cnc(N3CCC4(CC3)Cc3ccccc3[C@H]4N)c(CO)n2)cc1F | µL/min/mg protein | 7.4 |
| N[C@@H]1c2ccccc2CC12CCN(c1ncc(C#CCOc3ccc4c(c3)NC(=O)CC4)nc1CO)CC2 | µL/min/mg protein | 1.6 |
| NC(=O)c1ccc(OCC#Cc2cnc(N3CCC4(CC3)Cc3ccccc3[C@H]4N)c(CO)n2)cc1 | µL/min/mg protein | 0.4 |
| N[C@@H]1c2ccccc2CC12CCN(c1ncc(C#CCNC(=O)c3ccccc3)nc1CO)CC2 | µL/min/mg protein | 5.2 |
| N[C@@H]1c2ccccc2CC12CCN(c1ncc(C#CCNc3ncco3)nc1CO)CC2 | µL/min/mg protein | 9.9 |
| N[C@@H]1c2ccccc2CC12CCN(c1ncc(C#CCOc3cccc(C(F)(F)F)c3)nc1CO)CC2 | µL/min/mg protein | 6.3 |
| N[C@@H]1c2ccccc2CC12CCN(c1ncc(C#CCOc3ccc(S(N)(=O)=O)cc3)nc1CO)CC2 | µL/min/mg protein | 2.2 |
| N[C@@H]1c2ccccc2CC12CCN(c1ncc(C#CCOc3ccc4c(c3)CNC4=O)nc1CO)CC2 | µL/min/mg protein | 9.9 |
| NC(=O)c1ccc(NCC#Cc2cnc(N3CCC4(CC3)Cc3ccccc3[C@H]4N)c(CO)n2)cc1 | µL/min/mg protein | 7.3 |
